tested on: up to 32 different microorganisms; experiment: in vitro antibacterial activity (MIC), agar dilution on Brain Heart Infusion (BHI) agar with Steers replicator; assay type: cell-based; conditions: Streptococcus pyogenes PIU 2548 (code NN); unit assumed
Examples of molecules with documented MIC follow.
# value in µg/mL; strip the unit string

Solved entries:
CCC1OC(=O)C(C)C(=O)C(C)C(OC2OC(C)CC(N(C)C)C2O)C(C)(OCC=Cc2ccc3c(c2)OCCO3)CC(C)C(=O)C(C)C2NC(=O)OC12C (centres unmarked)	0.1
C=CCOC1(C)CC(C)C(=NO)C(C)C(O)C(C)(O)C(CC)OC(=O)C(C)C(=O)C(C)C1OC1OC(C)CC(N(C)C)C1O (centres unmarked)	3.1
CC[C@H]1OC(=O)[C@H](C)C(=O)[C@H](C)[C@@H](O[C@@H]2O[C@H](C)C[C@H](N(C)C)[C@H]2O)[C@@](C)(OCCN)C[C@@H](C)C(=O)[C@H](C)[C@@H](O)[C@]1(C)O	12.5

[in] Can you look up the measured MIC of CC[C@H]1OC(=O)[C@H](C)C(=O)[C@H](C)[C@@H](O[C@@H]2O[C@H](C)C[C@H](N(C)C)[C@H]2O)[C@@](C)(OCCCc2cnc3ccccc3c2)C[C@@H](C)C2=NCCN3C(=O)O[C@@]1(C)[C@H]3[C@H]2C for me?
[out] 0.2

[in] Please do the same for CCC1OC(=O)C(C)C(=O)C(C)C(OC2OC(C)CC(N(C)C)C2O)C(C)(OCC=Cc2ccc3nc(C)ccc3c2)CC(C)C(=O)C(C)C2NC(=O)OC12C (centres unmarked) as well.
[out] 0.1
